System: Escherichia coli IAI1
Test Summary: growth (OD595) fold change vs plate DMSO controls (fold change (ratio)); higher = more growth
Run Parameters: 20 µM; incubation time: 27 h, anaerobic, 37 °C
Structures can show the parent of a compound that is named as a salt.
Recorded Endpoint: growth
Enter a number only.

Guide cases for growth, answers given:
- Compound: "O=C(O)COc1ccc(Cl)cc1Cl"
  growth: 1.01
- Compound: "CCNCC(O)c1cccc(O)c1 (stereo not given) [Etilefrine hydrochloride]"
  growth: 0.971
- Compound: "C[C@]12C=CC(=O)C=C1CC[C@@H]1[C@@H]2CC[C@@]2(C)[C@H]1CC[C@]2(C)O [Methandrostenolone]"
  growth: 0.989
- Compound: "C[C@H](N)[C@H](O)c1ccc(O)c(O)c1 [Levonordefrin]"
  growth: 0.971
- Compound: "O=C(O)C(F)(F)C(F)(F)C(F)(F)C(F)(F)C(F)(F)C(F)(F)C(F)(F)F [PFOA (Perfluorooctanoic acid)]"
  growth: 1.02

Incoming: Bench note: what growth did O=[N+]([O-])O[C@@H]1CO[C@H]2[C@@H]1OC[C@@H]2O [Isosorbide mononitrate] show?
Outgoing: 0.984

Incoming: Record: CC(NC(C)(C)C)C(=O)c1cccc(Cl)c1 (stereo not given) [Bupropion hydrochloride]
Outgoing: 1.01

Incoming: Record: "C[N+](C)(C)CCCl"
Outgoing: 0.994

Incoming: Record: O=P1(N(CCCl)CCCl)NCCCO1 (stereo not given) [Cyclophosphamide]
Outgoing: 1.02

Incoming: Record: "CCOCn1c(-c2ccc(Cl)cc2)c(C#N)c(Br)c1C(F)(F)F"
Outgoing: 1

---

Collected fold change of 2-Phenylethylamine concentration values appear next to each entry.
System: Ruminococcus gnavus DSM 108212
Test Summary: fold change of 2-Phenylethylamine concentration vs plate DMSO controls (fold change (ratio)); higher = more amine produced, active = hit call of the paper (significant change in both replicates, either direction)
Run Parameters: 20 µM; incubation time: 27 h, anaerobic, 37 °C
Enter a number only.

Guide cases for fold change of 2-Phenylethylamine concentration, answers given:
- Compound: "O=P(Oc1ccccc1)(Oc1ccccc1)Oc1ccccc1"
  Tested On: "Ruminococcus gnavus DSM 108212"
  Observed Measurement: 0.995
- Compound: "CCN(CC)N=O"
  Tested On: "Ruminococcus gnavus DSM 108212"
  Observed Measurement: 1.01

// switching to the query compound
Incoming: Bench note: what fold change of 2-Phenylethylamine concentration did CC(Cc1ccccc1)NCCC(c1ccccc1)c1ccccc1 (stereo not drawn) [Prenylamine lactate] show?
Outgoing: 0.983

---

System: Ruminococcus gnavus DSM 108212
Test Summary: fold change of Tryptamine concentration vs plate DMSO controls (fold change (ratio)); higher = more amine produced, active = hit call of the paper (significant change in both replicates, either direction)
Run Parameters: 20 µM; incubation time: 27 h, anaerobic, 37 °C
Counter-ions that a name gives are not always drawn.
Collected fold change of Tryptamine concentration values appear next to each entry.
Enter a number only.

- Molecule: "CCCC[N+]1(C)[C@@H]2C[C@@H](OC(=O)[C@H](CO)c3ccccc3)C[C@H]1[C@@H]1O[C@@H]12 (stereo partly specified) [N-Butylscopolammonium bromide]"
  fold change of Tryptamine concentration: 0.946
- Molecule: "CCCCc1c(C)nc(NCC)nc1OS(=O)(=O)N(C)C"
  fold change of Tryptamine concentration: 0.959
- Molecule: "CC(N)C(O)c1ccccc1 (stereo unspecified) [Phenylpropanolamine hydrochloride]"
  fold change of Tryptamine concentration: 1.07
- Molecule: "CCC(COC(=O)c1cc(OC)c(OC)c(OC)c1)(c1ccccc1)N(C)C (stereo unspecified)"
  fold change of Tryptamine concentration: 1.06
- Molecule: "Oc1ccc(Cl)cc1Cc1cc(Cl)ccc1O"
  fold change of Tryptamine concentration: 0.561

// switching to the query molecule
Incoming: Bench note: what fold change of Tryptamine concentration did NC(=O)CN1CC(O)CC1=O (stereo unspecified) show?
Outgoing: 1.1
